Assay: Stability of test peptides in human plasma (LC/MS/MS, first order half-life)
Assay type: in vitro ADME
Conditions: Plasma t1/2 (2nd exp.)
Where a SMILES comes first, the peptide text is derived from it. The star is where a group is joined. Myristoyl = CCCCCCCCCCCCCC(=O)*
recorded.metric: half-life (min)
Lab book: enter the figure in min, no units written.

Task: Item CCCCCCCCCCCCCC(=O)NCC(=O)N[C@@H](C)C(=O)N[C@@H](CCC(N)=O)C(=O)N[C@@H](Cc1ccccc1)C(=O)N[C@@H](CO)C(=O)N[C@@H](CCCCN)C(=O)N[C@H](C(=O)N[C@@H](C)C(=O)N[C@@H](C)C(=O)N[C@@H](CCCCN)C(=O)O)[C@@H](C)O [myr-peptide 106] (Myristoyl-GAQFSKTAAK-OH) : provide half-life
Result: 54

----------
Experiment: Qualitative solubility of test peptides in 0.5 N saline
Format: physicochemical
Settings: pH 6.5, 20° C. (table title)
Where a SMILES comes first, the peptide text is derived from it. The star is where a group is joined. Myristoyl = CCCCCCCCCCCCCC(=O)*
recorded.metric: solubility

Task: // Input: CCCCCCCCCCCCCC(=O)NCC(=O)N[C@@H](C)C(=O)N[C@@H](CCC(N)=O)C(=O)N[C@@H](C)C(=O)N[C@@H](CO)C(=O)N[C@@H](CCCCN)C(=O)N[C@H](C(=O)N[C@@H](C)C(=O)N[C@@H](C)C(=O)N[C@@H](CCCCN)C(=O)O)[C@@H](C)O [myr-peptide 236] (Myristoyl-GAQASKTAAK-OH) . Output its solubility only.
Result: < 10000 µg/mL

Task: Determine from records and report solubility for CCCCCCCCCCCCCC(=O)NCC(=O)N[C@@H](C)C(=O)N[C@@H](CCC(N)=O)C(=O)N[C@@H](Cc1ccccc1)C(=O)N[C@@H](CO)C(=O)N[C@@H](CCCCN)C(=O)N[C@H](C(=O)N[C@@H](CCCCN)C(=O)N[C@@H](C)C(=O)N[C@@H](CCCCN)C(=O)NCC(=O)N[C@@H](CCC(=O)O)C(N)=O)[C@@H](C)O [myr-peptide 234-NH2] (Myristoyl-GAQFSKTKAKGE-NH2)
Result: < 2000 µg/mL

Task: Annotate the compound CCCCCCCCCCCCCC(=O)N[C@@H](C)C(=O)N[C@@H](C)C(=O)N[C@@H](C)C(=O)N[C@@H](CCC(=O)O)C(=O)N[C@@H](CCCNC(=N)N)C(=O)N1CCC[C@H]1C(=O)NCC(=O)N[C@@H](CCC(=O)O)C(=O)N[C@@H](C)C(=O)N[C@@H](C)C(=O)N[C@H](C(=O)N[C@@H](C)C(=O)O)C(C)C [myr-peptide 91] (Myristoyl-AAAERPGEAAVA-OH) with its measured solubility.
Result: < 20000 µg/mL

Task: State, in one line, measured solubility of CCCCCCCCCCCCCC(=O)NCC(=O)N[C@@H](C)C(=O)N[C@@H](CCC(N)=O)C(=O)N[C@@H](Cc1ccccc1)C(=O)N[C@@H](CO)C(=O)N[C@@H](CCCCN)C(=O)N[C@H](C(=O)N[C@@H](C)C(=O)N[C@@H](C)C(=O)N[C@@H](CCCCN)C(=O)O)[C@@H](C)O [myr-peptide 106] (Myristoyl-GAQFSKTAAK-OH)
Result: > 10000 µg/mL

----------
Test: Stability of test peptides in human CF mucus (LC/MS/MS, first order half-life)
Type: in vitro ADME
Conditions: cerebrospinal or other body fluid, pH 7, Mucus t1/2 (1st exp.)
Where a SMILES comes first, the peptide text is derived from it. The star is where a group is joined. Myristoyl = CCCCCCCCCCCCCC(=O)*
recorded.metric: half-life
Answer by giving the amount and then stating its unit.

Task: Respond only with half-life recorded for CCCCCCCCCCCCCC(=O)NCC(=O)N[C@@H](C)C(=O)N[C@@H](CCC(N)=O)C(=O)N[C@@H](Cc1ccccc1)C(=O)N[C@@H](CO)C(=O)N[C@@H](CCCCN)C(=O)N[C@H](C(=O)N[C@@H](C)C(=O)N[C@@H](C)C(=O)N[C@@H](CCCCN)C(=O)O)[C@@H](C)O [myr-peptide 106] (Myristoyl-GAQFSKTAAK-OH)
Result: 572 min

----------
Experiment: Stability of test peptides in human CF mucus (LC/MS/MS, first order half-life)
Format: in vitro ADME
Conditions: human CF mucus, 1st experiment, read-out: Mucus t1/2 (1st exp.) (converted)
Where a SMILES comes first, the peptide text is derived from it.
recorded.metric: half-life (h)
Please give a number only; it is taken to be in h.

Task: Supply measured half-life of C[C@@H]1NC(=O)CNC(=O)[C@H](CCCCN)NC(=O)[C@H](C)NC(=O)[C@H](C)NC(=O)[C@H]([C@@H](C)O)NC(=O)[C@H](CCCCN)NC(=O)[C@H](CO)NC(=O)[C@H](Cc2ccccc2)NC(=O)[C@H](CCC(N)=O)NC1=O [cyclic-peptide 106] (cyclo(GAQFSKTAAK)) in your reply.
Result: 1.1

----------
Test: Stability of test peptides in human plasma (LC/MS/MS, first order half-life)
Assay type: in vitro ADME
Details: human plasma, 37° C., 2nd experiment, read-out: Plasma t1/2 (2nd exp.) (converted)
recorded.metric: half-life

Consider the following illustrative entries.
substance | half-life
Ac-GAQFSKTAAK-OH [Ac-peptide 106] | 1.8 min
H-GAQFSKTAAK-NH2 [peptide 106-NH2] | 7.8 min

Switching to the query record.
Task: Retrieve half-life measured for H-GAQFSKTAAK-OH [peptide 106, GAQFSKTAAK] and print it.
Result: 9 min

----------
Reported half-life values for the following molecules.
Experiment: Stability of test peptides in human plasma (LC/MS/MS, first order half-life)
Assay type: in vitro ADME
Details: human plasma, 37° C., 1st experiment, read-out: Plasma t1/2 (1st exp.) (converted)
Where a SMILES comes first, the peptide text is derived from it. The star is where a group is joined. Myristoyl = CCCCCCCCCCCCCC(=O)*
Report as: number unit

Task: Please report half-life for the following molecule: CCCCCCCCCCCCCC(=O)NCC(=O)N[C@@H](C)C(=O)N[C@@H](CCC(N)=O)C(=O)N[C@@H](C)C(=O)N[C@@H](CO)C(=O)N[C@@H](CCCCN)C(=O)N[C@H](C(=O)N[C@@H](C)C(=O)N[C@@H](C)C(=O)N[C@@H](CCCCN)C(=O)O)[C@@H](C)O [myr-peptide 236] (Myristoyl-GAQASKTAAK-OH)
Result: 43.2 min

Task: For the molecule CCCCCCCCCCCCCC(=O)NCC(=O)N[C@@H](C)C(=O)N[C@@H](CCC(N)=O)C(=O)N[C@@H](Cc1ccccc1)C(=O)N[C@@H](CO)C(=O)N[C@@H](CCCCN)C(=O)N[C@H](C(=O)N[C@@H](CCCCN)C(=O)N[C@@H](C)C(=O)N[C@@H](CCCCN)C(=O)NCC(=O)N[C@@H](CCC(=O)O)C(N)=O)[C@@H](C)O [myr-peptide 234-NH2] (Myristoyl-GAQFSKTKAKGE-NH2) , give its measured half-life value.
Result: 229 min

----------
Assay: Stability of test peptides in human CF mucus (LC/MS/MS, first order half-life)
Type: in vitro ADME
Settings: cerebrospinal or other body fluid, pH 7, human CF mucus, 1st experiment, read-out: Mucus t1/2 (1st exp.) (converted)
Readings of half-life for the listed substances
Numeric answer only, unit min assumed.

substance | half-life [min]
H-GAQFSKTAAK-NH2 [peptide 106-NH2] | 4.8
H-GAQFSKTAAK-OH [peptide 106, GAQFSKTAAK] | 13.8

Task: Give me measured half-life, please, for this substance: Ac-GAQFSKTAAK-OH [Ac-peptide 106]
Result: 33

----------
Test: Stability of test peptides in human BALF (LC/MS/MS, first order half-life)
Format: in vitro ADME
Where a SMILES comes first, the peptide text is derived from it. The star is where a group is joined. Myristoyl = CCCCCCCCCCCCCC(=O)*
recorded.metric: half-life (h)
Kindly provide the numeric value in h only, without the unit symbol.

Task: Give half-life for the following compound: CCCCCCCCCCCCCC(=O)NCC(=O)N[C@@H](C)C(=O)N[C@@H](CCC(N)=O)C(=O)N[C@@H](Cc1ccccc1)C(=O)N[C@@H](CO)C(=O)N[C@@H](CCCCN)C(=O)N[C@H](C(=O)N[C@@H](C)C(=O)N[C@@H](C)C(=O)N[C@@H](CCCCN)C(=O)O)[C@@H](C)O [myr-peptide 106] (Myristoyl-GAQFSKTAAK-OH)
Result: 1.03

----------
Assay: Stability of test peptides in human plasma (LC/MS/MS, first order half-life)
Assay type: in vitro ADME
Details: human plasma, 37° C., 2nd experiment, read-out: Plasma t1/2 (2nd exp.) (converted)
Where a SMILES comes first, the peptide text is derived from it.
recorded.metric: half-life (h)
Please respond with the number in h and leave the unit unwritten.

Task: For the molecule C[C@@H]1NC(=O)CNC(=O)[C@H](CCCCN)NC(=O)[C@H](C)NC(=O)[C@H](C)NC(=O)[C@H]([C@@H](C)O)NC(=O)[C@H](CCCCN)NC(=O)[C@H](CO)NC(=O)[C@H](Cc2ccccc2)NC(=O)[C@H](CCC(N)=O)NC1=O [cyclic-peptide 106] (cyclo(GAQFSKTAAK)) , report half-life.
Result: 1.04
